# tgt: mu opiate receptor (MOR) (Rattus norvegicus, UniProt P33535)
# Construct: from tissue; host or cells: striatum (membrane preparation)
# Sequence (P33535 whole entry): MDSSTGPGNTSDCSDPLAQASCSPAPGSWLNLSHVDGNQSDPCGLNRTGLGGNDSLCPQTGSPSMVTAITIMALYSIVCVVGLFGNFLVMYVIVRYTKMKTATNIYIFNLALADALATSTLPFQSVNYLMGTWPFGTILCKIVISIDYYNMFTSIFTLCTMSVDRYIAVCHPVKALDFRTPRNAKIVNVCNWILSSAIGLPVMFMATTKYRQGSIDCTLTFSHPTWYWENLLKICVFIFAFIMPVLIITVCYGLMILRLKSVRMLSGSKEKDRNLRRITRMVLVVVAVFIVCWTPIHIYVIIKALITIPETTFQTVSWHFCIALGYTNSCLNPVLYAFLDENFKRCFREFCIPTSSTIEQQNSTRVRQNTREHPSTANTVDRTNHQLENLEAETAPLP
# Assay type: biochemical
Listed here: items and their measured % DAMGO + BFNA.

molecule	% DAMGO + BFNA, %
O=C1CN(C2CCc3ccccc3C2)C2(CCN(S(=O)(=O)c3ccccc3)CC2)N1 (centres unmarked) [C0136M(P5)]	153.6
COc1ccc(CCC(O)CC2c3c(cc4c(c3OC)OCO4)CCN2C)cc1 (centres unmarked)	298.5
COc1ccc(C(=O)N2CCC3(CC2)OCCN3C(=O)c2ccc(OC)cc2)cc1	143.2
CC1CCC(C(C)C)C(OCC(O)CN2CCN(C)CC2)C1 (centres unmarked)	142.9
CC1CCC(C(C)C)C(OCC(O)CN2CCC2)C1 (centres unmarked)	120.0

* * *

# tgt: mu opiate receptor (MOR) (Rattus norvegicus)
# Construct: from tissue; host or cells: striatum (membrane preparation)
# Type: biochemical
In this section we review reported % DAMGO (1 μM) values for a set of molecules.

molecule	% DAMGO (1 μM), %
CC(=O)N1CCSC12CCN(S(=O)(=O)c1ccc([N+](=O)[O-])cc1)CC2	54.8
CC1CCC(C(C)C)C(OCC(O)CN2CC(C)OC(C)C2)C1 (centres unmarked) [Compound A0032-1]	117.6
COc1c2c(cc3c1C(CC(=O)Cc1ccc(Br)cc1)[N+](C)(C)CC3)OCO2 (centres unmarked)	78.7
COc1c2c(cc3c1C(CC(=O)CCc1ccccc1)N(C)CC3)OCO2 (centres unmarked)	96.4
Cc1cccc(OCC(O)CN2CC(C)OC(C)C2)c1 (centres unmarked)	113.2
CS(=O)(=O)c1ccc(S(=O)(=O)N2CCOC23CCNCC3)cc1 [Compound C0116M]	122.0
CC(=O)c1ccc(S(=O)(=O)N2C(Cc3c[nH]cn3)C(=O)NC23CCNCC3)cc1 (centres unmarked) [Compound C0119M]	83.0
O=S(=O)(c1ccc(-c2ccccc2)cc1)N1CCC2(CC1)OCCN2S(=O)(=O)c1ccc(-c2ccccc2)cc1	114.9

* * *

# tgt: mu opiate receptor (MOR) (Rattus norvegicus)
# Construct: from tissue; host or cells: striatum (membrane preparation)
# Format: biochemical
# Procedure: To assess the mu opiate receptor (MOR) agonist activity of positive compounds from the FLNA screening, compounds were tested in a [^35S]GTPγS binding assay using striatal membranes. […] The immunocomplexes so formed were collected by incubation at 25° C. for 30 minutes with 40 μl of agarose-conjugated protein A/G beads and centrifugation at 5,000×g at 4° C. for 5 minutes. […] The radioactivity in the suspension was determined by liquid scintillation spectrometry.

compound	displayUnit	% DAMGO (0.1 μM)
COc1c2c(cc3c1OCO3)CCN(CC(O)COC1CC(C)CCC1C(C)C)C2 (stereo not shown)	%	70.7
CN1CCC2(CC1)NCC(=O)N2Cc1ccccc1 [Compound C0105M]	%	104.7
COc1c2c(cc3c1C(CC(=O)Cc1ccc(Br)cc1)[N+](C)(C)CC3)OCO2 (stereo not shown)	%	95.7
COc1c2c(cc3c1C(CC(O)Cc1ccccc1C)N(C)CC3)OCO2 (stereo not shown)	%	93.4
CC(=O)c1ccc(S(=O)(=O)N2CCOC23CCN(CC(=O)O)CC3)cc1 [Compound C0100M]	%	103.6
CC1CCC(C(C)C)C(OCC(O)CN2CCc3ccccc32)C1 (stereo not shown)	%	126.6
COc1c2c(cc3c1C(CC(=O)CCc1ccc(O)cc1)[N+](C)(C)CC3)OCO2 (stereo not shown)	%	103.5
COc1ccc(CC(=O)CC2c3c(cc4c(c3OC)OCO4)CC[N+]2(C)C)c(OC)c1 (stereo not shown)	%	89.4
CC1CCC(C(C)C)C(OCC(O)CN2CCN(CCN3CCCCC3)CC2)C1 (stereo not shown)	%	100.9
COc1ccc(S(=O)(=O)N2CCOC23CCNCC3)cc1	%	121.3
COc1ccc(OC)c(CCC(=O)CC2c3c(cc4c(c3OC)OCO4)CC[N+]2(C)C)c1 (stereo not shown)	%	49.4
COc1cc(S(=O)(=O)N2CCC3(CC2)OCCN3S(=O)(=O)c2cc(OC)c(OC)c(OC)c2)cc(OC)c1OC	%	81.9
COc1c2c(cc3c1C(CC(=O)c1ccc(N4CCOCC4)cc1)[N+](C)(C)CC3)OCO2 (stereo not shown)	%	102.8
O=S(=O)(c1ccc(F)c(F)c1)N1CCC2(CC1)OCCN2S(=O)(=O)c1ccc(F)c(F)c1	%	100.3
COc1ccc(NC(=O)N2CCC3(CC2)OCCN3S(=O)(=O)c2ccc(OC)cc2)cc1	%	110.1
CC(=O)c1ccc(S(=O)(=O)N2CCC3(CC2)NC(=O)C(Cc2cnc[nH]2)N3S(=O)(=O)c2ccc(C(C)=O)cc2)cc1 (stereo not shown) [Compound C0084M]	%	97.3
